test.target: SHP2-C SH2;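 also: peptide library displayed on the E. coli surface as eCPX fusions, selected cells deep-sequenced, score is each peptide's frequency after selection divided by its frequency in the input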
experiment.notes: SH2 binding enrichment of the phosphorylated peptide, bacterial display (enrichment ratio); higher = better substrate or ligand; peptides without Tyr show the background
Each record here notes measured SH2 binding enrichment.
Please state the value as a number alone, without comment.

primary_sequence="GDRPVYSEDEQ [CHST6_Y362_Y358D]" reported_endpoint="SH2 binding enrichment" data_value=0.639
primary_sequence="SAEKAYHEQFS [TUBA1A_Y282_L286F]" reported_endpoint="SH2 binding enrichment" data_value=0.565
primary_sequence="VGNAAYQAGSL [STK36_Y1181_P1185S]" reported_endpoint="SH2 binding enrichment" data_value=0.705
primary_sequence="LSDGPYSNPFE [EPOR_Y485_YF]" reported_endpoint="SH2 binding enrichment" data_value=0.486
primary_sequence="RIAFQYGDTDL [MYBPC3_Y340_V342D]" reported_endpoint="SH2 binding enrichment" data_value=0.742
primary_sequence="MPLTEYLKQIK [CNGB3_Y200_R203Q]" reported_endpoint="SH2 binding enrichment" data_value=0.651

Next:
Look up and report measured SH2 binding enrichment (SHP2-C SH2) for the following sequence: NFRTTCVNANE [KCNH2_Y475_Y475C] 0.536
